- Test description: in vitro
- Format: cell-based
- Test settings: human
Where a name gives a salt, the structure may show the parent alone.
Property label: viability at 24 h, 100 nM (%)
Numbers only, in %.

> print(dat)
                                   compound  value.reported
1  C[C@]12CC[C@@H]3c4ccc(O)cc4CC[C@H]3[C@@H]1CC[C@@H]2O             110
2  C[C@]12C=CC(=O)C=C1CC[C@H]1[C@@H]3C[C@@H](O)[C@](O)(C(=O)CO)[C@@]3(C)C[C@H](O)[C@@]12F             105
3  C[C@@H]1C[C@H]2[C@@H]3CCC4=CC(=O)C=C[C@]4(C)[C@@]3(F)[C@@H](O)C[C@]2(C)[C@@]1(O)C(=O)CO             113

Hello, I would appreciate it if you could give viability at 24 h, 100 nM for each entry below.
1. C[C@H]1C[C@H]2[C@@H]3CCC4=CC(=O)C=C[C@]4(C)[C@@]3(F)[C@@H](O)C[C@]2(C)[C@@]1(O)C(=O)CO
2. CC/C(=C(\c1ccc(O)cc1)c1ccc(OCCN(C)C)cc1)c1ccccc1 [4-hydroxytamoxifen]
3. O=C(c1ccc(OCCN2CCCCC2)cc1)c1c(-c2ccc(O)cc2)sc2cc(O)ccc12 [Raloxifene hydrochloride, raloxifene hydrochloride]

A:
109
104
106

The reported measurements were obtained from paper PMC4374931.
